The values you see were collected from patent EP0694535A1.

- target.or.test.system: human NK-2 receptor (Homo sapiens, UniProt P21452)
- Construct: expressed in transfected cells; host or cells: CHO-hNK-2R cells (CHO-derived), membrane preparation
- Sequence (P21452 1-398): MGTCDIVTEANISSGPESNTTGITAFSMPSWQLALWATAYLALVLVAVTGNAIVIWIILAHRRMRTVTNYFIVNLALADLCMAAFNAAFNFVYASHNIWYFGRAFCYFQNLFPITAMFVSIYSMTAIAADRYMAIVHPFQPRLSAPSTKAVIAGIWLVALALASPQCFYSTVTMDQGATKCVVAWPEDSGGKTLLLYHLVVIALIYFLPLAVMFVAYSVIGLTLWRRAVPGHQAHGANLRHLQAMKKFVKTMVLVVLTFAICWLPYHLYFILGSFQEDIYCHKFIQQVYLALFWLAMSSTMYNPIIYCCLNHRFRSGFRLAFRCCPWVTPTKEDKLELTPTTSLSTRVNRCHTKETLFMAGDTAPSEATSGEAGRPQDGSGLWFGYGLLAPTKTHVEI
- experimental.details: NK-2 Receptor Binding Assay (CHO-hNK-2R membranes, iodohistidyl-neurokinin A)
- setup.conditions: inhibition of neurokinin A binding at ten micromolar, read-out: Percent Inhibition @ 10 μM
measurement.kind: inhibition at 10 µM (%)
Supply the numeric figure in %, leaving out any unit text.

Query string: Record request: inhibition at 10 µM value, item Cc1cccc(-c2nc3ccccc3n2Cc2ccccc2Cl)c1 [Example 56]
Result string: 63.7

Further cases:
Query string: Record request: inhibition at 10 µM value, item CCN(CC)CCOc1ccc2nc(-c3cccc(C)c3)n(Cc3ccccc3)c2c1 [Example 93]
Result string: 42

Query string: Record request: inhibition at 10 µM value, item COc1cc(-c2nc3ccccc3n2Cc2ccc(Cl)cc2Cl)cc(OC)c1OC [Example 54]
Result string: 86.2

Query string: Record request: inhibition at 10 µM value, item Cc1cccc(-c2nc3ccccc3n2Cc2c(Cl)cccc2Cl)c1 [Example 62]
Result string: 23.1
